- method: Metabolic stability in rat liver microsomes
- Assay type: ADME, Microsome
- experimental-conditions: read-out: Stabilty
value-kind: log10 microsomal CLint (log10 of the value in µL/min/mg)
Annotation: log10 of microsomal CLint, µL/min/mg basis.

[
  {
    "molecule": "CN(C)c1ncnc(-c2cnn3ncccc23)n1",
    "log10 microsomal CLint": 2.02
  },
  {
    "molecule": "FC1CCN(c2nccc(-c3cnn4ncccc34)n2)C1 (single isomer, unassigned)",
    "log10 microsomal CLint": 2.11
  },
  {
    "molecule": "COc1ccnn2ncc(-c3ccnc(N(C)C)n3)c12",
    "log10 microsomal CLint": 1.89
  },
  {
    "molecule": "c1cnn2ncc(-c3ccnc(N4CCC45COC5)n3)c2c1",
    "log10 microsomal CLint": 2.08
  },
  {
    "molecule": "CN(c1ccccc1)c1nccc(-c2cnn3ncccc23)n1",
    "log10 microsomal CLint": 2.53
  }
]

Quick one: log10 microsomal CLint for CC1CCCN1c1nccc(-c2cnn3ncccc23)n1 (configuration not stated) ? 2.97

Quick one: log10 microsomal CLint for `N[C@H]1CCN(c2nccc(-c3cnn4ncccc34)n2)C1` ? 1.68

---

- target-system: UniProtKB Q13627
- method: Displacement of Kinase tracer 236 from biotinylated DYRK1A (unknown origin) expressed in Escherichia coli BL21 (DE3) incubated for 1.5 hrs by TR-FRET assay
Reported pIC50 values follow for various compounds
// scale note: pIC50 = -log10(conc_M); give the bare number

Observe how each entry below is paired with its result.
[
  {
    "compound": "CN(c1nccc(-c2cnn3ncccc23)n1)C1CC1",
    "target-system": "UniProtKB Q13627",
    "value-kind": "pIC50",
    "experimental-value": 6.94
  },
  {
    "compound": "CN(C)c1cccc(-c2cnn3ncccc23)n1",
    "target-system": "UniProtKB Q13627",
    "value-kind": "pIC50",
    "experimental-value": 6.04
  }
]

Quick one: pIC50 for `CCCN(CCOC)c1nccc(-c2cnn3ncccc23)n1` ? 6.50

Quick one: pIC50 for `CN(CCCC(F)(F)F)c1nccc(-c2cnn3ncccc23)n1` ? 7.00

Quick one: pIC50 for `Cc1cc(-c2cnn3ncccc23)nc(N(C)C)n1` ? 4.93

Quick one: pIC50 for `COCCCN(C)c1nccc(-c2cnn3ncccc23)n1` ? 6.66

---

- method: Thermodynamic solubility of the compound at pH 6.8
- Format: physicochemical
- experimental-conditions: buffer, read-out: Therm_solubility
Reported solubility thermodynamic values follow for various compounds
A bare number is not enough; add the unit after it.

[
  {
    "compound": "CN(C)c1ncc(F)c(-c2cnn3ncccc23)n1",
    "solubility thermodynamic": "30 µg/mL"
  },
  {
    "compound": "CC1CCN(c2nccc(-c3cnn4ncccc34)n2)C1 (single isomer, unassigned)",
    "solubility thermodynamic": "50 µg/mL"
  },
  {
    "compound": "CN(c1ccccc1)c1nccc(-c2cnn3ncccc23)n1",
    "solubility thermodynamic": "50 µg/mL"
  },
  {
    "compound": "Cc1cnn2ncc(-c3ccnc(N(C)C)n3)c2c1",
    "solubility thermodynamic": "10 µg/mL"
  },
  {
    "compound": "CN(C)c1ncnc(-c2cnn3ncccc23)n1",
    "solubility thermodynamic": "50 µg/mL"
  }
]

Quick one: solubility thermodynamic for `CN(C)c1nccc(-c2cnn3ncccc23)n1` ? 100 µg/mL

Quick one: solubility thermodynamic for FC1CCN(c2nccc(-c3cnn4ncccc34)n2)C1 (single isomer, unassigned) ? 40 µg/mL

Quick one: solubility thermodynamic for `N[C@H]1CCN(c2nccc(-c3cnn4ncccc34)n2)C1` ? 1920 µg/mL

Quick one: solubility thermodynamic for `CN(c1nccc(-c2cnn3ncccc23)n1)C1CC1` ? 60 µg/mL
